test: soluble on expression in E. coli; label from the status in PepcDB or PDB records
measuredMetric: soluble on expression in E. coli

INSERT INTO assay_data (seqtext, measuredmetric, observedvalue) VALUES
  ('GSMVENSELRKAGLKVTLPRVKILQMLDSAEQRHMSAEDVYKALMEAGEDVGLATVYRVLTQFEAAGLVVRHNFDGGHAVFELADSGHHDHMVCVDTGEVIEFMDAEIEKRQKEIVRERGFELVDHNLVLYVRKKK', 'soluble on expression in E. coli', 'soluble'),
  ('MGSDKIHHHHHHMQIELANFEKIYTHFVGNKSDEEGITISKTPLQLNDESLKELLLNYFTHPFKNKEYNHFHHETDLNLNELYTYCSTIFADPDALYLQSINIAKHLYEQSKHPMIKGGELYVVHFNDCVIDGESTDAIGLFKSETKETFLKIFPQGDGYEAVSDKGIDIRKLDKGCFIINSEKENGYKVCVVDQTNKSSDAQYWKDDFLKIVSRNDSFHYTQNYMNMCKSFVTDQMPETFEVSKTDQIDLLNRSVNYFKKNESFDMQAFTNDVIQDEGLIDSFKEYKNKFQEDHQMPMVDEFEISTPAVKKYAKVFKSVLKLDRNFHIYIHGDKDLIERGRDDASGMNFYKIYYKEES', 'soluble on expression in E. coli', 'not soluble'),
  ('SKCIPYSVLLKDLEMRNLRELEDLIIEAVYTDIIQGKLDQRNQLLEVDFCIGRDIRKKDINNIVKTLHEWCDGCEAVLLGIEQQVLRANQYKENHNRTQQQVEAEVTNIKKTLKATASSSAQEMEQQLAERECPPHAEQRQPTKKMSKVKGLVSSRH', 'soluble on expression in E. coli', 'soluble'),
  ('MGSDKIHHHHHHMPTTMTTNIKNNDFKDVVFNRQSVRQFDPTVKIDREELQTIIDETISAPSACNLQSWHFVVADSADGKAKAKSVLMPFNYPQIDSCSAMIFVLGDTQSHLVYRDVWNKACEEGRITPEKRDQIFKTFLPMYENASPEFLQADAMIDSSMAAMQLLLIARAHGYDANPIAGYAADKVATTFGLDAKRYVPVMAIALGKAASEPITTTRYAGTQVTEFI', 'soluble on expression in E. coli', 'not soluble'),
  ('MTQRDTGRLDAIVLAAGRGVRFGGGKLTALLDGDPLVAAALLTAFLAPARRVVVAVGPEPDVRQAVEATATRLLARERLVLVPIDDPSAGMGASLAAAARSLPGDTDGVFVFLGDMPRIDPATPRHLAAALRDPGDIVAPTYLGRRGHPVLFGARWAPVLGALSGDEGARAIVDKAGESLVLVPVDDPGVHLDVDRPSDLARVQTDRRTLLEHHHHHH', 'soluble on expression in E. coli', 'soluble'),
  ('MGSDKIHHHHHHMSHANQAIPLDEEAIFDAMPMEEEGQFANHATPLIRNCWYVCARRDEVGRTPISRRLLDTDVVMYRTRDGRPVAMHNRCPHRAFPLAKGHVEGDRLVCGYHGMQFEPDGLCAHLPAISHVPANACVQTYPIADRGPLTWIWMGDANLADEALIPELPWLASSEWGSVTGDFHIKADYVSMHENLIDQTHFPFLHPGTVGTPEYARASMNATTEGDQVLIHRRLDNAPPPGIYGKPADIMHKNVDRTSEARFVSPAVHMAHARIFDPQPEPGKPSVYGYYITHCFTPESNHSIHYWWFNSRDYGIDDTDIDAFMYEASMQAYYEDVEALEWIMDVVLTDNEAQQFELSFAPDKPGLMARRIMHRLAMSERG', 'soluble on expression in E. coli', 'not soluble'),
  ('MIAELHIADDETAVKVLHLQRRAYTIEAQIIGSKALPPLHDTIASLQRCGERFFGYFQGERLVGAIACKRNGKTLRLCRLMVDPDCFRQGIASALLDFVIKQEPSISEIVVTTGSGNAPAIRFYERHGFRAIERIETPERIELTKLVKRSG', 'soluble on expression in E. coli', 'not soluble');
